test: in vivo; details: rat, po, 300 mg/kg
PARAMETER: LD50

Request the reported LD50 associated with FC(F)C(F)(F)COC(F)(F)C(F)N1C(F)(F)C(F)(F)OC(F)(F)C1(F)F (stereo not shown)
> 300 mg/kg

====

test: physchem
PARAMETER: chromatographic logP

Request the reported chromatographic logP associated with COC(F)(F)C(F)N1C(F)(F)C(F)(F)OC(F)(F)C1(F)F (stereo not shown) [Example 1]
4.46
